B1: PhoQ; a variant is named by its letters at X, in order, P23837 (parent)
chain: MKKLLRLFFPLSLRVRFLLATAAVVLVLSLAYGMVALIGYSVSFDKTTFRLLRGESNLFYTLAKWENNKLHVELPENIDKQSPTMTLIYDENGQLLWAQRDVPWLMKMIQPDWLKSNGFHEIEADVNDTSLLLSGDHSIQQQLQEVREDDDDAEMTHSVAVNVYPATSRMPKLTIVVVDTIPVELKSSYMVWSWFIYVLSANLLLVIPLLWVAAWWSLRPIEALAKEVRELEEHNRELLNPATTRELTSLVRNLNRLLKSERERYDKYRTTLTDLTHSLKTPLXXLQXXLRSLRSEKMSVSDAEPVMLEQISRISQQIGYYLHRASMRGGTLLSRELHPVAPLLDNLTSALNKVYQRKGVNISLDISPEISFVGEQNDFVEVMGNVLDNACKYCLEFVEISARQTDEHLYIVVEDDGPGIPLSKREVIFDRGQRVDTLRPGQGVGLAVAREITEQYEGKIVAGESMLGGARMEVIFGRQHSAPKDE

Variants of: B1
Experiment: enrichment ratio after two sorts for PhoP signalling (ratio (wild type AVST 3.29)); higher = more functional
Conditions: with PhoP (E. coli)
The full ranking holds about 140,000 sequences; the median of “enrichment ratio after two sorts for PhoP signalling” is about 0, and the highest 2% start at about 11. The sample holds the highest values, similar sequences and a random draw of the others, so the mix is not that of the screen.
Exercise: state measured enrichment ratio for each of the variants provided.
The reply should be a number, written without any unit.

IN: # query: enrichment ratio of entry `GETI`
OUT: 11.6

IN: # query: enrichment ratio of entry `ANTS`
OUT: 21.1

IN: # query: enrichment ratio of entry `GETC`
OUT: 3.51

IN: # query: enrichment ratio of entry `TANV`
OUT: 17.9

IN: # query: enrichment ratio of entry `ANNK`
OUT: 0.253

IN: # query: enrichment ratio of entry `GELF`
OUT: 9.93

IN: # query: enrichment ratio of entry `ANTA`
OUT: 19.3

IN: # query: enrichment ratio of entry `TLSC`
OUT: 8.65

IN: # query: enrichment ratio of entry `ANTI`
OUT: 11.4

IN: # query: enrichment ratio of entry `ANTH`
OUT: 6.44

IN: # query: enrichment ratio of entry `GELG`
OUT: 22.4

IN: # query: enrichment ratio of entry `ANTG`
OUT: 1.58
